target: Alcohol dehydrogenase 1 (Saccharomyces cerevisiae)
readout-name: IC50 (µM)

# chemical-structure, readout-name, reported-result
records = [
    ("N#CN(OC(=O)c1ccccc1)C(=O)c1ccccc1", "IC50", 25),
]
